Let's look at some molecules and their measured IC50.
test system: DU145; assay: IncuCyte % confluence cell growth inhibition, DU145; type: cell-based; conditions: Homo sapiens, DU-145, read-out: IC50 values (μM), DU145
State the answer as a number, implicitly in µM.

Take a look at these entries with their results.
molecule | value
CC1(C)C(=O)N(c2ccc(C#N)c(C(F)(F)F)c2)C(=S)N1c1ccc(-c2c[nH]nn2)cc1 [Compound 16a] | 39.9
CC1(C)C(=O)N(c2ccc(C#N)c(C(F)(F)F)c2)C(=O)N1Cc1ccc(-c2c[nH]nn2)cc1 [Compound 14a] | 84.1
CC1(C)C(=O)N(c2ccc(C#N)c(C(F)(F)F)c2)C(=S)N1Cc1ccc(-c2c[nH]nn2)cc1 [Compound 15a] | 37.3

Request: Please report the recorded IC50 for CC1(C)C(=O)N(c2ccc(C#N)c(C(F)(F)F)c2)C(=O)N1Cc1ccc(-c2c[nH]nn2)cc1F [Compound 19a] .
Response: 46.1
